- Tested on: SK-MEL-2 melanoma
- Method notes: NCI tumour cell line growth inhibition, 48 h
Provide the reported TGI of each item.

Compound	Experimental target	Reported property	Result
Nc1nc(Cl)cc(NCC2(CO)CC(CCCCc3ccccc3)C2)n1 (stereo not drawn)	SK-MEL-2 melanoma	TGI	> 100 µM
COC(=O)CP1(=O)OC2C(C3CCC2(C)C3(C)C)N1c1cc(C(F)(F)F)cc(C(F)(F)F)c1 (stereo not drawn)	SK-MEL-2 melanoma	TGI	46.4 µM
CC(CN(CP(=O)([O-])[O-])CP(=O)([O-])[O-])N(CP(=O)([O-])[O-])CP(=O)([O-])[O-].N[C@@H]1CCCC[C@@H]1N.[Pt+2] (stereo not drawn)	SK-MEL-2 melanoma	TGI	> 100 µM
COc1ccc2cc(C(=O)NCCc3ccccc3)ccc2c1OC	SK-MEL-2 melanoma	TGI	> 100 µM
COC(=O)c1ccc2c(c1)nc(-c1ccc(Cl)cc1)n2-c1cc(C(C)(C)C)[nH]n1	SK-MEL-2 melanoma	TGI	18.1 µM
CC1(C(O)c2ccccc2)CN(C(C)(C)C)C(=O)/C1=C\Sc1ccccc1 (stereo not drawn)	SK-MEL-2 melanoma	TGI	> 100 µM

Hey, can you go through the list below and give me TGI for every item?
1. O=Cc1ccc(C(F)(F)F)cc1.[C-]#[O+].[C-]#[O+].[C-]#[O+].[Cr]
2. O=C(CCN1CCCC1)Nc1ccc2c(NCCCCc3ccccc3)c3ccccc3nc2c1

> 100 µM
3.34 µM

* * *

- System: OVCAR-8 ovarian
- Method notes: NCI tumour cell line growth inhibition, 48 h
Provide the reported GI50 of each item.

Consider the following illustrative entries.
>>> print(df.to_string())
                                   compound  reported_property    result
0  COc1ccc(C2CC(c3cc(OC)c(OC)c(OC)c3)=NN2)cc1 (stereo unspecified)               GI50  28400 nM
1  Fc1ccc(Nc2nc(Nc3ccc(-c4nc5ccccc5[nH]4)cc3)nc(N3CCCC3)n2)cc1               GI50   2360 nM
2  COC(=O)c1oc2c(C(=O)/C=C/c3ccc(OC)cc3)c(OCCCN3CCCCC3)ccc2c1C               GI50   1670 nM
3  O=[N+]([O-])c1ccc2[nH]cc(-c3c4ccccc4cc4[nH]c5ccc([N+](=O)[O-])cc5c34)c2c1               GI50   2590 nM
4  O=C1c2cccc3cccc(c23)C(=O)N1CCCCOc1ccc(-c2nc3ccc(N4CCOCC4)cc3[nH]2)cc1               GI50   6210 nM

Pending compound:
Consider the compound shown here: NC(=O)NC(=O)CI What is its recorded GI50?
3230 nM

* * *

- Test system: PC-3 prostate
- Method notes: NCI tumour cell line growth inhibition, 48 h
Reported property: TGI

In [3]: df
Out[3]:
                                   compound  reported_property    result
0  CCC1=C(C)C2=NC1=CC1=NC(=C(CC)/C1=C/O)C=C1N=C3C(=C1C)C(=O)C(C(=O)OC)C3=C1NC(=C2)C(C)C1CCC(=O)OC (stereo not given)                TGI  > 100 µM

Hey, can you go through the list below and give me TGI for every item?
1. CCCCc1cc2c(cc1O)CCC1C2CC[C@@]2(C)C1CC[C@@H]2O (stereo not given in full)
2. CC1=C(C)C(=O)C(C(C)C2=C(C)C(=O)C(C)=C(C)C2=O)=C(C)C1=O
3. Cc1c2cc[n+](C)cc2c(C)c2c1[nH]c1ccc(O)cc12
4. N#C/C(=C/N1CCN(C(=O)c2ccco2)C1=S)C(N)=O

["35.3 µM", "> 100 µM", "> 100 µM", "> 100 µM"]

* * *

- System: HOP-92 NSCLC
- Method notes: NCI tumour cell line growth inhibition, 48 h
Provide the reported TGI of each item.

Consider the following illustrative entries.
In [3]: df
Out[3]:
                                   compound    result
0               CCP(=O)(CC)C(Cl)(Cl)C(=O)NC  > 100 µM
1  Cc1cc(Cl)ccc1NC(=O)C1C(=O)N(c2ccc(Cl)cc2C)C(=O)/C1=N\N (configuration not stated)  > 100 µM
2  Cc1ccc(S(=O)(=O)N2CCCCC2CCO)cc1 (configuration not stated)  > 100 µM
3  O=c1c(-c2ccccc2)c[nH]c2cc([N+](=O)[O-])c(/C(Cl)=C/c3ccccc3)cc12   10.6 µM
4   NC12c3c4cccc3Oc3cccc(c31)Oc1cccc(c12)O4   > 50 µM

Hey, can you go through the list below and give me TGI for every item?
1. Cc1cccc(Nc2cn(CCOc3ccccc3)c(=O)[nH]c2=O)c1
2. COc1ccccc1Nc1nc(-c2cc3cccc(C(F)(F)F)c3oc2=O)cs1
3. Cc1ccccc1NC(=O)c1[nH]c(=S)nc(N)c1-c1ccccc1C
4. CCCCOC(=O)N[C@H]1CCc2cc(OC)c(OC)c(OC)c2-c2ccc(SC)c(=O)cc21
5. CCOc1ccc(N=NC2C(=O)N(C(=O)CC(=O)Nc3ccc(Cl)cc3)N=C2C)cc1 (configuration not stated)
6. COc1ccc(Cc2ccccc2C(=O)O)c2ccccc12
7. CC(C)(C)CC(C)(C)Cc1ccc(OCCOCC[N+](C)(C)Cc2ccccc2)cc1
8. CSC(=S)N/N=C(\C)c1ccccn1

1. 84 µM
2. 33.1 µM
3. > 100 µM
4. 30.9 µM
5. > 100 µM
6. 61.9 µM
7. 2.56 µM
8. 26.1 µM

Hey, can you go through the list below and give me TGI for every item?
1. O=c1c2ccccc2nc(-c2ccc(Cl)cc2)n1O
2. O=C(O)/C(Cl)=C(/Cl)C(=O)Nc1cccc(Cl)c1
3. Cc1ccccc1NC(=O)NC(CC(N)=O)c1ccc2c(c1)nc(-c1cccc(Oc3ccc(C(C)(C)C)cc3)c1)n2CCCN1CCCCC1C (configuration not stated)
4. C=C1C(=O)O[C@H]2C1C[C@@H](O)[C@@]1(C)OC1CC[C@@]1(C)O[C@H]21 (some centres not stated)
5. C(=N\NC1=NCCCN1)/c1ccc(-c2cn3cc(/C=N/NC4=NCCCN4)ccc3n2)cc1
6. CC(C)(C)[C@@H]1NC(=O)CN1C(=O)OCc1ccccc1

1. 88.8 µM
2. 30.8 µM
3. 7.33 µM
4. 32.6 µM
5. > 100 µM
6. > 100 µM

Hey, can you go through the list below and give me TGI for every item?
1. CCOC(=O)c1cc(-c2ccc(OC)c(OC)c2)cn1C
2. Cn1cc(C(=O)C2CCCCC2)ccc1=O
3. COc1cc(/C=C\c2ccc(SC)cc2)cc(OC)c1OC

1. > 10 µM
2. > 100 µM
3. > 46.1 µM

* * *

- Test system: TK-10 renal
- Method notes: NCI tumour cell line growth inhibition, 48 h
Provide the reported TGI of each item.

Consider the following illustrative entries.
>>> df
                                   molecule  reported_property    result
0  COC(=O)c1c(C)nc(C)c(N=O)c1-c1ccccc1C(F)(F)F                TGI     30 µM
1      CC1CCN(c2nnc(Cl)cc2C(=O)c2ccccc2)CC1                TGI  > 100 µM
2  Fc1ccc(Nc2nc(Nc3ccc(-c4nc5ccccc5[nH]4)cc3)nc(N3CCCC3)n2)cc1                TGI   31.3 µM

Hey, can you go through the list below and give me TGI for every item?
1. C[n+]1c2ccccc2c(NC2CCNCC2)c2[nH]c3ccccc3c21
2. Cc1c2c(nn1-c1ccc(S/N=C3\SCC(=O)CN3c3ccccc3)cc1)-c1ccccc1CC2
3. COc1ccc(C2CC(c3cc(OC)c(OC)c(OC)c3)=NN2)cc1 (stereo not drawn)
4. Fc1ccc(C(=NCc2ccccc2)N2CCOCC2)cc1
5. CO/N=C1/c2cc(OC)ccc2-c2c(NOC)nc3ccccc3c21
6. CN1CCN(c2ccc3nc(-c4ccc(OCCCN5C(=O)c6cccc7cccc(c67)C5=O)cc4)[nH]c3c2)CC1
7. CC(=O)Nc1ccc(C(=O)N[C@@H]2C(=O)N3[C@@H]2SC(C)(C)[C@@H]3C(=O)O)cn1
8. CC1SC(c2cccs2)N(NC(=O)C(O)c2ccccc2)C1=O (stereo not drawn)

8.53 µM
> 50 µM
> 100 µM
> 100 µM
39.7 µM
> 71.2 µM
> 100 µM
> 100 µM

Hey, can you go through the list below and give me TGI for every item?
1. Cc1ccccc1NC(=O)NC(CC(N)=O)c1ccc2c(c1)nc(-c1cccc(Oc3ccc(C(C)(C)C)cc3)c1)n2CCCN1CCCCC1C (stereo not drawn)
2. CC(=O)OCc1ccc(-c2nc(C#N)c(N)o2)o1

1: 9.01 µM; 2: > 10 µM
